Test system: BDF1 mice, P288 methotrexate-resistant leukemia, survival T/C
Test: NCI In Vivo Anticancer Drug Screen. Data for tumor model P288 Lymphocytic Leukemia resistant to methotrexate; NSC 740 (intraperitoneal) in B6D2F1 (BDF1) mice
Details: endpoint: median survival time; dose: 12.5 mg/kg/injection; schedule: Q01DX010 (ip); vehicle: saline; higher = longer survival
Method: The antitumor activity of compounds was measured in mice bearing transplantable tumors. Survival or tumor size were measured and the results are expressed as the measurement made in the treated group (T) divided by the measurement made in the vehicle treated control group (C). The tumor model used in this assay is P288 Lymphocytic Leukemia resistant to methotrexate; NSC 740 (intraperitoneal) in B6D2F1 (BDF1) mice
Toxic doses and inconclusive results are not listed.
Reported Property: T/C

CN(N=O)C(=O)NC(C=O)C(O)C(O)C(O)CO (stereo unspecified); 100 % of control
CS(=O)(=O)OCCCCOS(C)(=O)=O; 106 % of control
O=C(O)CCCc1ccc(N(CCCl)CCCl)cc1; 115 % of control
O=NN(CCCl)C(=O)NCCCl; 180 % of control
[I][Hg][CH2]C1COC([CH2][Hg][I])CO1 (stereo unspecified); 100 % of control

Please examine the following record next.
Prompt: For the compound `C[C@H]1C(=O)O[C@@H]2CCN3CC=C(COC(=O)[C@](C)(O)[C@@]1(C)O)[C@H]23` , give its reported T/C.
Completion: 91 % of control
